target: DNA topoisomerase II (Homo sapiens) (UniProt P11388+Q02880); assay: Percentage of protein-linked DNA breaks in KB cells by [3H]thymidine incorporation; format: functional, cell-based; design: concentration or dose not given beside the values
VALUE_TYPE: Activity (%)
Field format: number, assumed %, no unit text.

The following compounds have reported results that may help.
>  <COMPOUND>
COC(=O)[C@H](Cc1c[nH]c2ccccc12)NC(=O)c1ccc(N[C@@H]2c3cc4c(cc3[C@@H](c3cc(OC)c(O)c(OC)c3)[C@H]3C(=O)OC[C@@H]32)OCO4)cc1

>  <UNIT_LABEL>
%

>  <NUMBER>
58

$$$$
>  <COMPOUND>
COc1cc([C@@H]2c3cc4c(cc3[C@@H](Nc3ccc([N+](=O)[O-])cc3)[C@H]3COC(=O)[C@H]23)OCO4)cc(OC)c1O

>  <UNIT_LABEL>
%

>  <NUMBER>
244

$$$$
>  <COMPOUND>
COc1cc([C@@H]2c3cc4c(cc3[C@@H](Nc3ccc(C(=O)NCCc5ccc(O)cc5)cc3)[C@H]3COC(=O)[C@H]23)OCO4)cc(OC)c1O

>  <UNIT_LABEL>
%

>  <NUMBER>
368

$$$$
>  <COMPOUND>
COC(=O)[C@@H](Cc1c[nH]c2ccccc12)NC(=O)c1ccc(N[C@@H]2c3cc4c(cc3[C@@H](c3cc(OC)c(O)c(OC)c3)[C@H]3C(=O)OC[C@@H]32)OCO4)cc1

>  <UNIT_LABEL>
%

>  <NUMBER>
121

$$$$

Give a short answer stating reported Activity for "COC(=O)[C@H](Cc1c[nH]cn1)NC(=O)c1ccc(N[C@@H]2c3cc4c(cc3[C@@H](c3cc(OC)c(O)c(OC)c3)[C@H]3C(=O)OC[C@@H]32)OCO4)cc1" .
122

###

Below, each of the compounds is paired with its reported Activity value.
target: DNA topoisomerase II (Homo sapiens) (UniProt P11388+Q02880); assay: Percentage of protein-linked DNA breaks in KB cells by [3H]thymidine incorporation; type: functional, cell-based; design: concentration or dose not given beside the values
Field format: number, assumed %, no unit text.

The following compounds have reported results that may help.
>  <LINE_NOTATION>
COc1cc([C@@H]2c3cc4c(cc3[C@@H](Nc3ccc(C(=O)N[C@@H](C)C(=O)OCc5ccccc5)cc3)[C@H]3COC(=O)[C@H]23)OCO4)cc(OC)c1O

>  <UNIT_LABEL>
%

>  <Activity>
210

$$$$
>  <LINE_NOTATION>
COC(=O)[C@H](CCSC)NC(=O)c1ccc(N[C@@H]2c3cc4c(cc3[C@@H](c3cc(OC)c(O)c(OC)c3)[C@H]3C(=O)OC[C@@H]32)OCO4)cc1

>  <UNIT_LABEL>
%

>  <Activity>
295

$$$$

Give a short answer stating reported Activity for "COc1cc([C@@H]2c3cc4c(cc3[C@@H](Nc3ccc(C(=O)NCC(=O)OCc5ccccc5)cc3)[C@H]3COC(=O)[C@H]23)OCO4)cc(OC)c1O" .
178

###

Below, each of the compounds is paired with its reported pEC50 value.
tested on: 1A9/ptx-10; assay: Dose required for reduction in paclitaxel resistant human ovarian 1A9-PTX10 cancer cells after 3 days incubation; assay type: functional; settings: 1A9/ptx-10, 72 h, read-out: ED50 (the source's name)
Units for pEC50: none; it is -log10 of a concentration expressed in mol/L.

The following compounds have reported results that may help.
>  <LINE_NOTATION>
COC(=O)[C@@H](Cc1c[nH]c2ccccc12)NC(=O)c1ccc(N[C@@H]2c3cc4c(cc3[C@@H](c3cc(OC)c(O)c(OC)c3)[C@H]3C(=O)OC[C@@H]32)OCO4)cc1

>  <pEC50>
6.46

$$$$
>  <LINE_NOTATION>
COC(=O)[C@H](CCSC)NC(=O)c1ccc(N[C@@H]2c3cc4c(cc3[C@@H](c3cc(OC)c(O)c(OC)c3)[C@H]3C(=O)OC[C@@H]32)OCO4)cc1

>  <pEC50>
5.68

$$$$

Give a short answer stating reported pEC50 for "COc1cc([C@@H]2c3cc4c(cc3[C@@H](NC(=O)[C@H](Cc3ccc(O)cc3)NC(=O)OCc3ccccc3)[C@H]3COC(=O)[C@H]23)OCO4)cc(OC)c1O" .
5.30

Give a short answer stating reported pEC50 for "COc1cc([C@@H]2c3cc4c(cc3[C@@H](Nc3ccc(C(=O)N[C@@H](C)C(=O)OCc5ccccc5)cc3)[C@H]3COC(=O)[C@H]23)OCO4)cc(OC)c1O" .
6.70

Give a short answer stating reported pEC50 for "COc1cc([C@@H]2c3cc4c(cc3[C@@H](Nc3ccc(C(=O)N[C@H](C)C(=O)OCc5ccccc5)cc3)[C@H]3COC(=O)[C@H]23)OCO4)cc(OC)c1O" .
5.92

Give a short answer stating reported pEC50 for "COc1cc([C@@H]2c3cc4c(cc3[C@@H](Nc3ccc(C(=O)NCC(=O)OCc5ccccc5)cc3)[C@H]3COC(=O)[C@H]23)OCO4)cc(OC)c1O" .
6.11

Give a short answer stating reported pEC50 for "COC(=O)[C@H](Cc1c[nH]cn1)NC(=O)c1ccc(N[C@@H]2c3cc4c(cc3[C@@H](c3cc(OC)c(O)c(OC)c3)[C@H]3C(=O)OC[C@@H]32)OCO4)cc1" .
5.40

Give a short answer stating reported pEC50 for "COc1cc([C@@H]2c3cc4c(cc3[C@@H](Nc3ccc(NC(=O)[C@@H](Cc5ccc(O)cc5)NC(=O)OCc5ccccc5)cc3)[C@H]3COC(=O)[C@H]23)OCO4)cc(OC)c1O" .
6.04

Give a short answer stating reported pEC50 for "COC(=O)[C@H](Cc1ccccc1)NC(=O)c1ccc(N[C@@H]2c3cc4c(cc3[C@@H](c3cc(OC)c(O)c(OC)c3)[C@H]3C(=O)OC[C@@H]32)OCO4)cc1" .
5.77
